# target or system: human TYK2 (JH2domain-pseudokinase) (Homo sapiens (Human), UniProt P29597)
# Sequence (P29597 556-888): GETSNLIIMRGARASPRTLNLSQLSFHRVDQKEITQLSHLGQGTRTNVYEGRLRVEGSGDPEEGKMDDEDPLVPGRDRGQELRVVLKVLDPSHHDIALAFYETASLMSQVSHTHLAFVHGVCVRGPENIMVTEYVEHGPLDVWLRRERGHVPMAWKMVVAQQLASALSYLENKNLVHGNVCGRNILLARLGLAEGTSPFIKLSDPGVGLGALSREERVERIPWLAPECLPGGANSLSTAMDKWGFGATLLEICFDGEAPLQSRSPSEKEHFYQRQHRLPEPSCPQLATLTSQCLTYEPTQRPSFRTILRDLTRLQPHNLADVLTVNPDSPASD
# method: TYK2 JH2 Domain Binding Assay (KINOMEscan)
# condition parameters: 11-point 3-fold dilution, top concentration 30,000 nM, duplicate; read-out: hTYK2_JH2_Binding (Kd; nM)
metric: Kd

{"compound": "CNc1ccc(-c2cc(NC)n3ncc(C(=O)N[C@@H]4C[C@@H]4F)c3n2)n2ccnc12", "experimental result": "< 0.2 nM"}
{"compound": "CNc1cc(-c2cnc3n(CC(=O)N4CC5(COC5)C4)cccc2-3)nc2c(C(=O)N[C@@H]3CC[C@H]3OC)cnn12", "experimental result": "< 0.2 nM"}
{"compound": "CNc1cc(Nc2cccn([C@@H]3CC[C@@H]3O)c2=O)nc2c(C(=O)N[C@@H]3CCC[C@@H](OC)C3)cnn12 [Compound I-99]", "experimental result": "0.2 to 1 nM"}
{"compound": "CNc1cc(-c2cn(C3CCOCC3)c3ncccc23)nc2c(C(=O)N[C@H]3CCC[C@H](O)C3)cnn12", "experimental result": "< 0.2 nM"}
{"compound": "CNc1cc(-c2cnc3n(C4CCOCC4)cccc2-3)nc2c(C(=O)N[C@H]3CC[C@@H]3OC)cnn12", "experimental result": "< 0.2 nM"}
{"compound": "CNc1cc(-c2cn(CCN3CCOCC3)c3ncccc23)nc2c(C(=O)N[C@H]3CC[C@@H]3OC)cnn12", "experimental result": "< 0.2 nM"}

----------
# target or system: human TYK2 (JH2domain-pseudokinase) (Homo sapiens (Human), UniProt P29597)
# method: TYK2 JH2 Domain Binding Assay (KINOMEscan)
# condition parameters: 11-point 3-fold dilution, top concentration 30,000 nM, duplicate; read-out: hTYK2_JH2_Binding (Kd; nM)
# Method: Binding constants for compounds of the present invention against the JH2 domain were determined by the following protocol for a KINOMEscan® assay (DiscoveRx). […] The TYK2(JH2domain-pseudokinase) fusion protein was labeled with a chimeric double-stranded DNA tag containing the NFkB binding site (5′-[…]-3′) fused to an amplicon for qPCR readout, which was added directly to the expression extract (the final concentration of DNA-tag in the binding reaction is 0.1 nM). […]
Catalogue of Kd readings, one per entry.
metric: Kd

{"compound": "CNc1cc(-c2cn([C@H]3C[C@@H](COC)C3)c3ncccc23)nc2c(C(=O)N[C@@H]3CC[C@H]3OC)cnn12 [Compound I-934]", "experimental result": "< 0.2 nM"}
{"compound": "O=C(N[C@@H]1CC[C@H]1F)c1cnn2c3c(c(-c4cn([C@H]5C[C@H](O)C5)c5ncccc45)nc12)OCCN3 [Compound I-758]", "experimental result": "< 0.2 nM"}
{"compound": "CNc1cc(Nc2cccn([C@H]3C[C@H](OC)C3)c2=O)nc2c(C(=O)NC3CCC3)cnn12 [Compound I-141]", "experimental result": "< 0.2 nM"}
{"compound": "CNc1cc(Nc2cccn(-c3coc(C)n3)c2=O)nc2c(C(=O)N[C@@H]3C[C@@H]3F)cnn12 [Compound I-126]", "experimental result": "> 10 nM"}
{"compound": "CNc1cc(Nc2cccn([C@H]3CCC[C@H]3O)c2=O)nc2c(C(=O)N[C@@H]3CC[C@@H](OC)C3)cnn12 [Compound I-87]", "experimental result": "> 10 nM"}
{"compound": "CNc1cc(Nc2ccc(F)n(-c3ccccn3)c2=O)nc2c(C(=O)N[C@@H]3C[C@@H]3F)cnn12 [Compound I-474]", "experimental result": "1 to 10 nM"}
{"compound": "CNc1cc(-c2cn(CCN3CCOCC3)c3ncccc23)nc2c(C(=O)N[C@@H]3CC[C@H]3OC)cnn12 [Compound I-55]", "experimental result": "0.2 to 1 nM"}
{"compound": "CNc1ccc(-c2cc(NC)n3ncc(C(=O)N[C@@H]4CC[C@H]4OC)c3n2)n2ccnc12 [Compound I-490]", "experimental result": "< 0.2 nM"}
{"compound": "CNc1cc(-c2cn([C@H]3[C@@H]4COC[C@@H]43)c3ncccc23)nc2c(C(=O)N[C@@H]3CC[C@H]3O)cnn12 [Compound I-960]", "experimental result": "< 0.2 nM"}
{"compound": "CNc1cc(Nc2cccn([C@H]3CC[C@H]3O)c2=O)nc2c(C(=O)N[C@H]3CC[C@H](OC)C3)cnn12 [Compound I-86]", "experimental result": "1 to 10 nM"}
{"compound": "CO[C@H]1CC[C@@H]1NC(=O)c1cnn2c3c(c(Nc4cccn([C@H]5[C@@H]6COC[C@@H]65)c4=O)nc12)OCCN3 [Compound I-764]", "experimental result": "< 0.2 nM"}
{"compound": "CNc1cc(-c2cnc3n([C@@H]4CCOC[C@H]4O)cccc2-3)nc2c(C(=O)N[C@@H]3C[C@@H]3F)cnn12 [Compound I-824]", "experimental result": "< 0.2 nM"}
{"compound": "CNc1cc(-c2cn([C@H]3C[C@@H](O)C3)c3ncccc23)nc2c(C(=O)N[C@@H]3C[C@@H]3F)cnn12 [Compound I-500]", "experimental result": "< 0.2 nM"}
{"compound": "CNc1cc(-c2cnc3n(CC(=O)N4CCOCC4)cccc2-3)nc2c(C(=O)NC3CC[C@@H]3OC)cnn12 (stereo partly drawn) [Compound I-962]", "experimental result": "< 0.2 nM"}
{"compound": "CNc1cc(-c2cn([C@H]3CCCOC3)c3ncccc23)nc2c(C(=O)N[C@H]3COC[C@H]3O)cnn12 [Compound I-60]", "experimental result": "< 0.2 nM"}
{"compound": "CNc1cc(Nc2cccn([C@H]3C[C@H](F)C3)c2=O)nc2c(C(=O)N[C@H]3C[C@@H]3OC)cnn12 [Compound I-138]", "experimental result": "< 0.2 nM"}
{"compound": "CNc1cc(Nc2ccc(F)n(-c3ccccn3)c2=O)nc2c(C(=O)NC3CC3)cnn12 [Compound I-473]", "experimental result": "> 10 nM"}
{"compound": "CNc1cc(Nc2cccn([C@H]3[C@@H]4COC[C@@H]43)c2=O)nc2c(C(=O)NC3CCC3)cnn12 [Compound I-142]", "experimental result": "< 0.2 nM"}
{"compound": "CO[C@@H]1CC[C@H]1NC(=O)c1cnn2c3c(c(Nc4cccn([C@H]5[C@@H]6COC[C@@H]65)c4=O)nc12)OCCN3 [Compound I-763]", "experimental result": "> 10 nM"}
{"compound": "CNc1cc(Nc2cccn(C3CCOCC3)c2=O)nc2c(C(=O)NC3CCC3)cnn12 [Compound I-143]", "experimental result": "< 0.2 nM"}
{"compound": "CNc1cc(-c2cnc3n(C4CCN(CCOC)CC4)cccc2-3)nc2c(C(=O)N[C@H]3CC[C@@H]3OC)cnn12 [Compound I-1020]", "experimental result": "< 0.2 nM"}

----------
Catalogue of Kd readings, one per entry.
# target or system: human TYK2 (JH2domain-pseudokinase) (Homo sapiens (Human), UniProt P29597)
# method: TYK2 JH2 Domain Binding Assay (KINOMEscan)
# condition parameters: 11-point 3-fold dilution, top concentration 30,000 nM, duplicate; read-out: hTYK2_JH2_Binding (Kd; nM)
metric: Kd

{"compound": "CNc1cc(-c2cn(C3CCOCC3)c3ncc(F)cc23)nc2c(C(=O)N[C@@H]3CC[C@H]3O)cnn12", "target or system": "human TYK2 (JH2domain-pseudokinase) (Homo sapiens (Human), UniProt P29597)", "metric": "Kd", "experimental result": "0.2 to 1 nM"}
{"compound": "CNc1cc(Nc2cccn([C@H]3CCCOC3)c2=O)nc2c(C(=O)N[C@@H]3CCC[C@@](C)(OC)C3)cnn12", "target or system": "human TYK2 (JH2domain-pseudokinase) (Homo sapiens (Human), UniProt P29597)", "metric": "Kd", "experimental result": "1 to 10 nM"}
{"compound": "O=C(NC1CC1)c1cnn2c3c(c(Nc4cccc5ocnc45)nc12)OCCN3", "target or system": "human TYK2 (JH2domain-pseudokinase) (Homo sapiens (Human), UniProt P29597)", "metric": "Kd", "experimental result": "< 0.2 nM"}
{"compound": "CNc1cc(Nc2cccn([C@@H]3C[C@H]3F)c2=O)nc2c(C(=O)N[C@@H]3CC[C@H]3OC)cnn12", "target or system": "human TYK2 (JH2domain-pseudokinase) (Homo sapiens (Human), UniProt P29597)", "metric": "Kd", "experimental result": "< 0.2 nM"}
{"compound": "CNc1cc(Nc2cccn([C@H]3CC[C@@H]3O)c2=O)nc2c(C(=O)N[C@@H]3CCC[C@@H](OC)C3)cnn12", "target or system": "human TYK2 (JH2domain-pseudokinase) (Homo sapiens (Human), UniProt P29597)", "metric": "Kd", "experimental result": "1 to 10 nM"}
{"compound": "CNc1cc(Nc2cccn([C@@H]3CCC[C@@H]3O)c2=O)nc2c(C(=O)N[C@@H]3CC[C@@H](OC)C3)cnn12", "target or system": "human TYK2 (JH2domain-pseudokinase) (Homo sapiens (Human), UniProt P29597)", "metric": "Kd", "experimental result": "0.2 to 1 nM"}
{"compound": "CNc1cc(Nc2cccn(C3CC(F)(F)C3)c2=O)nc2c(C(=O)N[C@H]3CCC[C@]3(C)O)cnn12", "target or system": "human TYK2 (JH2domain-pseudokinase) (Homo sapiens (Human), UniProt P29597)", "metric": "Kd", "experimental result": "> 10 nM"}
{"compound": "CNc1cc(-c2cnc3n([C@H]4CCOC[C@@H]4O)cccc2-3)nc2c(C(=O)N[C@@H]3C[C@@H]3F)cnn12", "target or system": "human TYK2 (JH2domain-pseudokinase) (Homo sapiens (Human), UniProt P29597)", "metric": "Kd", "experimental result": "< 0.2 nM"}
{"compound": "CNc1cc(Nc2cccn([C@H]3C[C@@H]3F)c2=O)nc2c(C(=O)N[C@H]3CC[C@@H]3OC)cnn12", "target or system": "human TYK2 (JH2domain-pseudokinase) (Homo sapiens (Human), UniProt P29597)", "metric": "Kd", "experimental result": "< 0.2 nM"}
{"compound": "CNc1cc(-c2cn(C3CN(C)C3)c3ncccc23)nc2c(C(=O)NC3CC[C@@H]3OC)cnn12 (some centres unmarked)", "target or system": "human TYK2 (JH2domain-pseudokinase) (Homo sapiens (Human), UniProt P29597)", "metric": "Kd", "experimental result": "< 0.2 nM"}
{"compound": "CNc1cc(Nc2cccn([C@@H]3CC[C@@H]3O)c2=O)nc2c(C(=O)N[C@H]3CCC[C@H](OC)C3)cnn12", "target or system": "human TYK2 (JH2domain-pseudokinase) (Homo sapiens (Human), UniProt P29597)", "metric": "Kd", "experimental result": "0.2 to 1 nM"}
{"compound": "CNc1cc(-c2cnc3n([C@@H]4COC[C@H]4O)cccc2-3)nc2c(C(=O)N[C@@H]3C[C@@H]3F)cnn12", "target or system": "human TYK2 (JH2domain-pseudokinase) (Homo sapiens (Human), UniProt P29597)", "metric": "Kd", "experimental result": "< 0.2 nM"}
{"compound": "CNc1cc(-c2cn(C3COC3)c3ncccc23)nc2c(C(=O)NC3CC[C@@H]3F)cnn12 (some centres unmarked)", "target or system": "human TYK2 (JH2domain-pseudokinase) (Homo sapiens (Human), UniProt P29597)", "metric": "Kd", "experimental result": "< 0.2 nM"}
{"compound": "CNc1cc(Nc2cccn([C@@H]3CCC[C@](C)(O)C3)c2=O)nc2c(C(=O)NC3CC3)cnn12", "target or system": "human TYK2 (JH2domain-pseudokinase) (Homo sapiens (Human), UniProt P29597)", "metric": "Kd", "experimental result": "< 0.2 nM"}

Values from patent US11414431B2
